# Specific Surface Area (BET) per record follows
particulars: N2 at 77 K, relative pressures 0.05 to 0.3; mesylate
Number first, unit second.

Illustrative cases are given below, each with its answer.
| compound | Specific Surface Area (BET) |
| --- | --- |
| C#CCN[C@@H]1CCc2ccccc21.CS(=O)(=O)O [Example 4, R-(+)-N-propargyl-1-aminoindan mesylate] | 0.1434 m^2/g |
| C#CCN[C@@H]1CCc2ccccc21.CS(=O)(=O)O [Reference Example 1, R-(+)-N-propargyl-1-aminoindan mesylate] | 0.3216 m^2/g |
| C#CCN[C@@H]1CCc2ccccc21.CS(=O)(=O)O [Reference Example 3, R-(+)-N-propargyl-1-aminoindan mesylate] | 0.0274 m^2/g |
| C#CCN[C@@H]1CCc2ccccc21.CS(=O)(=O)O [Example 3, R-(+)-N-propargyl-1-aminoindan mesylate] | 0.0474 m^2/g |
| C#CCN[C@@H]1CCc2ccccc21.CS(=O)(=O)O [Example 1, R-(+)-N-propargyl-1-aminoindan mesylate] | 0.0722 m^2/g |

Shifting focus to the compound that follows.
Supply measured Specific Surface Area (BET) of C#CCN[C@@H]1CCc2ccccc21.CS(=O)(=O)O [Reference Example 2, R-(+)-N-propargyl-1-aminoindan mesylate] in your reply.
0.2490 m^2/g
